This collection of values is drawn from ChEMBL document CHEMBL4414650.

Kindly supply the reported pIC50 values for the records listed here.
Target: Epidermal growth factor receptor (Homo sapiens, UniProt P00533, C797S/L858R/T790M)
Sequence (P00533 25-1210 T790M/C797S/L858R limits assumed): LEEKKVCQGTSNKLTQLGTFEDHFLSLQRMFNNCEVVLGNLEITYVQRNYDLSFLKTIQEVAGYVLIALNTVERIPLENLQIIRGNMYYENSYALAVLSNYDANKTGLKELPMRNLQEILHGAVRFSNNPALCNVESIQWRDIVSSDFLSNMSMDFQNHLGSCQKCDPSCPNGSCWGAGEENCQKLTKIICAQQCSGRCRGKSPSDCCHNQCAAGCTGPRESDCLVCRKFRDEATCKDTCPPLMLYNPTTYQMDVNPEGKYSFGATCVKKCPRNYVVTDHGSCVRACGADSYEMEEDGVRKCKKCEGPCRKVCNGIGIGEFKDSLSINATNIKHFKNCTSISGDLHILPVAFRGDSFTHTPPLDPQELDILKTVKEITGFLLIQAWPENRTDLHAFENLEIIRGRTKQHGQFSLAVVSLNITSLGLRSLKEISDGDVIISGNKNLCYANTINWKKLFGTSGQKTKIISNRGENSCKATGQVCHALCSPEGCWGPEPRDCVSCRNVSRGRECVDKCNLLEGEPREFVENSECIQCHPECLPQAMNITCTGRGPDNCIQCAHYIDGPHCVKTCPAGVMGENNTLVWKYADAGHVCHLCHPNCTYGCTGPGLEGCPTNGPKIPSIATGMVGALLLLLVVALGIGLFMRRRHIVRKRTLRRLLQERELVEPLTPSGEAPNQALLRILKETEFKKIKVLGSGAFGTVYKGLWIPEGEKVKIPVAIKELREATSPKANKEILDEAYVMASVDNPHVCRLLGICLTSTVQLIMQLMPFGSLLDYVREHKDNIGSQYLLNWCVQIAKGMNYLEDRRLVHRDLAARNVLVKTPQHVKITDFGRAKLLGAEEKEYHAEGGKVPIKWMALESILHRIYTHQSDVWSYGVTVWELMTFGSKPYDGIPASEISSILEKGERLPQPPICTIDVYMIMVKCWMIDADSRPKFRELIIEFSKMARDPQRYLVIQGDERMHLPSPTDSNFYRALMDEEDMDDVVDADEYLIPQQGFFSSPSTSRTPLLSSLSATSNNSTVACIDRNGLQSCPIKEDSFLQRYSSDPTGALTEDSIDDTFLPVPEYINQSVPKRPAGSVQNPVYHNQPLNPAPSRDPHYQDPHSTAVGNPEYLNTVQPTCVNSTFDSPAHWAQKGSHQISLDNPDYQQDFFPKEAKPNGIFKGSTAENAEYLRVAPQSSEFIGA
Experiment: biochemical
Note on units: pIC50 is unitless, being -log10 of a concentration expressed in mol/L.

Qu. Given `CC1(C)CC[C@]2(C(=O)OCCCCO[N+](=O)[O-])CC[C@]3(C)C(=CC[C@@H]4[C@@]5(C)CC[C@H](O)[C@@](C)(CO)[C@@H]5CC[C@]43C)[C@@H]2C1` , state its recorded pIC50.
Ans. 7.40

Qu. Entry `CC(=O)O[C@H]1CC[C@]2(C)[C@H]3CC=C4[C@@H]5CC(C)(C)CC[C@]5(C(=O)OCCCCO[N+](=O)[O-])CC[C@@]4(C)[C@]3(C)CC[C@H]2C1(C)C` : reported pIC50 = ?
Ans. 7.70

###

Please respond with reported IC50 for every item in the list.
Target: Epidermal growth factor receptor (Homo sapiens, UniProt P00533)
Sequence (P00533 whole entry): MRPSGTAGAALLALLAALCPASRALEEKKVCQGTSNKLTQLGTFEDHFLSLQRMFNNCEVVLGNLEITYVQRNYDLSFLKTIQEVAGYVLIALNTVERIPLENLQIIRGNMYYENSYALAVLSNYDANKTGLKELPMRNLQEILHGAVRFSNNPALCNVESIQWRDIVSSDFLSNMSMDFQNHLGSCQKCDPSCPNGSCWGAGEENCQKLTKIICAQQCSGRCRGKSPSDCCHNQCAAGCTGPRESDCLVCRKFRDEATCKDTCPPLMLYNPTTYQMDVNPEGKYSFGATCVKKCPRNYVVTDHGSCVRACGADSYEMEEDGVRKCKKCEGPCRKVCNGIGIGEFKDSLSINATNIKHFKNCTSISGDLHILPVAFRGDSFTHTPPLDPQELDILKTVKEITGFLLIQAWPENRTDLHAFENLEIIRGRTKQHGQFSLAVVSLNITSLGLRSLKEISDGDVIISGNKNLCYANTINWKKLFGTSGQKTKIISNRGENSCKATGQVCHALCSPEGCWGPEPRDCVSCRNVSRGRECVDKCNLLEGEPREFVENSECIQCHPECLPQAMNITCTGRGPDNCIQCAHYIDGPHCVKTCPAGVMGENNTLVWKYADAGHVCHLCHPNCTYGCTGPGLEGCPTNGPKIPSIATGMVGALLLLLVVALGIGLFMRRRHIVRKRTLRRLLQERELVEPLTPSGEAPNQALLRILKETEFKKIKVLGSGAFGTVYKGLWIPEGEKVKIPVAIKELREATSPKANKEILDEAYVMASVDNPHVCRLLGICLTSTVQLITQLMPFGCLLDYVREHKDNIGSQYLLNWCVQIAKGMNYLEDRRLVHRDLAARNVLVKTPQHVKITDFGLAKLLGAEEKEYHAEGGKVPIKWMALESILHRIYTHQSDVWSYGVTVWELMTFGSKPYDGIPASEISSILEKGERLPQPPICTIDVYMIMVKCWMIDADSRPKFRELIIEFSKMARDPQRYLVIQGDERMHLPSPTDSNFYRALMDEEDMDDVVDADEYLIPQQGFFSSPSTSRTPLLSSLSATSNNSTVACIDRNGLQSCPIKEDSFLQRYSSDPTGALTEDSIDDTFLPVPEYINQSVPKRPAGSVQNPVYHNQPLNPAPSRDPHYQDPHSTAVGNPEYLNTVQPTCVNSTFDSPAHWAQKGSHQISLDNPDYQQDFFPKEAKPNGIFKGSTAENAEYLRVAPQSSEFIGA
Assay: biochemical
Description: Inhibition of C-terminal His-tagged/ N-terminal GST-tagged recombinant human EGFR (668 to 1210 residues) expressed in a Baculovirus infected Sf9 cell expression system using poly-EY as substrate incubated for 30 mins by ADP-Glo kinase assay
Return type: number; implicit unit nM.

Qu. Entry `CC1(C)CC[C@]2(C(=O)OCCCCO[N+](=O)[O-])CC[C@]3(C)C(=CC[C@@H]4[C@@]5(C)CC[C@H](O)[C@@](C)(CO)[C@@H]5CC[C@]43C)[C@@H]2C1` has what IC50?
Ans. 190

Qu. For the compound `CC1(C)CC[C@]2(C(=O)OCCO[N+](=O)[O-])CC[C@]3(C)C(=CC[C@@H]4[C@@]5(C)CC[C@H](O)C(C)(C)[C@@H]5CC[C@]43C)[C@@H]2C1` , what IC50 is on record?
Ans. 110

###

Field: IC50. Provide a value for each of the compounds that follow.
Biological target: Epidermal growth factor receptor (Homo sapiens, UniProt P00533, L858R/T790M)
Sequence (P00533 25-1210 T790M/L858R limits assumed): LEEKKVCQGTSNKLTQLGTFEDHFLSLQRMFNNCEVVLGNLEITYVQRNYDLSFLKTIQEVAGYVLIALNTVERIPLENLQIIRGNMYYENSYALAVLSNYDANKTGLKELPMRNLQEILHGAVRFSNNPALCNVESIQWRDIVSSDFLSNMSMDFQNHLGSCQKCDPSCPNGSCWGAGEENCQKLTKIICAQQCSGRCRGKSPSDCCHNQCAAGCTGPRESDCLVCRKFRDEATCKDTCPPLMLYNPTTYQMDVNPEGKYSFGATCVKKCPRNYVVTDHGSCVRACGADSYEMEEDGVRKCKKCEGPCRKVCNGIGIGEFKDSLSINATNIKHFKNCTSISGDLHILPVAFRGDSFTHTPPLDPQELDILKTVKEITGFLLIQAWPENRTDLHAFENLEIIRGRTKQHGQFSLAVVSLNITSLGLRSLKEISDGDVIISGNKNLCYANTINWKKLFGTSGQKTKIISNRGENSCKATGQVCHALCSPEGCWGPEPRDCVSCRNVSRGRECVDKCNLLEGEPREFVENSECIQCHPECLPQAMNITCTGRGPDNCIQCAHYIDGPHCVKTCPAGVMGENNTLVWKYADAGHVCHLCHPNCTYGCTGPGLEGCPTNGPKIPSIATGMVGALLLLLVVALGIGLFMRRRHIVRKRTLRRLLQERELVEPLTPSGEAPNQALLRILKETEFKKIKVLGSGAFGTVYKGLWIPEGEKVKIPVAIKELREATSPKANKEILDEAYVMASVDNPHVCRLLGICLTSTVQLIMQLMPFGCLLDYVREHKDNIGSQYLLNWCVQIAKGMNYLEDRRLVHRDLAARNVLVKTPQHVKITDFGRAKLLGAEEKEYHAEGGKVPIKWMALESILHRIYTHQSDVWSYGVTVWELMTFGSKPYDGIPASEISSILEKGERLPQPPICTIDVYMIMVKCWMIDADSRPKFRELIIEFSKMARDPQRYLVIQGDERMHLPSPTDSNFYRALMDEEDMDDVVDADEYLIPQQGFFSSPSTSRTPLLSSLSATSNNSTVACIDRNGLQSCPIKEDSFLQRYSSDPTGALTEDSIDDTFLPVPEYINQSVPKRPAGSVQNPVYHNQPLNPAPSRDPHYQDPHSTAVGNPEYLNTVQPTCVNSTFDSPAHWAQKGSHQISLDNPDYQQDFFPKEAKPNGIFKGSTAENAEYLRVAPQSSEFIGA
Assay: biochemical

Qu. Need IC50 of CC1(C)CC[C@]2(C(=O)O)CC[C@]3(C)C(=CC[C@@H]4[C@@]5(C)CC[C@H](O)[C@@](C)(CO)[C@@H]5CC[C@]43C)[C@@H]2C1 [HEDERAGENIN] , thanks.
Ans. > 20 µM

Qu. Which IC50 is reported for this compound? `CC1(C)CC[C@]2(C(=O)OCCCCO[N+](=O)[O-])CC[C@]3(C)C(=CC[C@@H]4[C@@]5(C)CC[C@H](O)[C@@](C)(CO)[C@@H]5CC[C@]43C)[C@@H]2C1`
Ans. > 20 µM

Qu. Name the recorded IC50 for `CC1(C)CC[C@]2(C(=O)OCCCCO[N+](=O)[O-])CC[C@]3(C)C(=CC[C@@H]4[C@@]5(C)CC[C@H](OC(=O)c6ccccc6)C(C)(C)[C@@H]5CC[C@]43C)[C@@H]2C1` .
Ans. > 20 µM

Qu. I'd like to know its IC50. The compound in question is `CC1(C)CC[C@]2(C(=O)OCCCCO[N+](=O)[O-])CC[C@]3(C)C(=CC[C@@H]4[C@@]5(C)CC[C@H](OC(=O)/C=C/c6ccc7c(c6)OCO7)C(C)(C)[C@@H]5CC[C@]43C)[C@@H]2C1`
Ans. > 20 µM

Qu. What measured IC50 goes with CC1(C)CC[C@]2(C(=O)O)CC[C@]3(C)C(=CC[C@@H]4[C@@]5(C)CC[C@H](O)C(C)(C)[C@@H]5CC[C@]43C)[C@@H]2C1 [OLEANOLIC_ACID] ?
Ans. > 20 µM

Qu. # get_value(readout='IC50', item= `CC1(C)CC[C@]2(C(=O)OCCCCO[N+](=O)[O-])CC[C@]3(C)C(=CC[C@@H]4[C@@]5(C)CC[C@H](OC(=O)c6ccc([N+](=O)[O-])cc6)C(C)(C)[C@@H]5CC[C@]43C)[C@@H]2C1` )
Ans. > 20 µM

###

For each of the molecules below, state its pIC50.
Target: Epidermal growth factor receptor (Homo sapiens, UniProt P00533, C797S/L858R/T790M)
Experiment: biochemical
pIC50: −log10 of the molar value.

Qu. Name the recorded pIC50 for `C=CC(=O)O[C@H]1CC[C@]2(C)[C@H]3CC=C4[C@@H]5CC(C)(C)CC[C@]5(C(=O)OCCCCO[N+](=O)[O-])CC[C@@]4(C)[C@]3(C)CC[C@H]2C1(C)C` .
Ans. < 4.70

Qu. Bench note: what pIC50 did `CC1(C)CC[C@]2(C(=O)OCCCCO[N+](=O)[O-])CC[C@]3(C)C(=CC[C@@H]4[C@@]5(C)CC[C@H](OCc6ccccc6)C(C)(C)[C@@H]5CC[C@]43C)[C@@H]2C1` show?
Ans. < 4.70

Qu. Which measured pIC50 value corresponds to `CC1(C)CC[C@]2(C(=O)OCCCCO[N+](=O)[O-])CC[C@]3(C)C(=CC[C@@H]4[C@@]5(C)CC[C@H](OC(=O)c6ccc([N+](=O)[O-])cc6)C(C)(C)[C@@H]5CC[C@]43C)[C@@H]2C1` ?
Ans. < 4.70
